- assay-name: NCI Yeast Anticancer Drug Screen. Data for the bub3 strain (AID 167)
- experimental-parameters: S. cerevisiae bub3 mutant strain, at 100.0 µM
This is part of a sample that, as a whole, favours compounds with a hit. Of some 79,000 tested, about 15% had one in any assay. Calls of active or inactive are those of the source. Rule as the data show it: active = growth inhibition above about 70%; inactive = the rest.
Classes used: Yes for active, No for inactive

molecule: CC1CN(/N=C\c2ccc([N+](=O)[O-])o2)C(=O)O1 (configuration not stated)
assigned-class: No
--
molecule: COC(=O)C(=O)CC(=O)c1cccc(OC)c1
assigned-class: No
--
molecule: CCOC(=O)/C(=C/c1cccc(Cl)c1)N(CC)CC
assigned-class: Yes
--
molecule: COC1/C=C\C=C(/C)C(=O)NC2=CC(=O)C(=O)C(=C2O)CC(C)CC(OC)C(O)C(C)/C=C(\C)C1OC(N)=O (configuration not stated)
assigned-class: Yes
--
molecule: CC(C)=CCC/C(C)=C/CN1C(=O)C=CC1=O
assigned-class: Yes
--
molecule: CC(C)(CN1CCCCC1)C(=O)/C=C/c1c(Cl)cccc1Cl
assigned-class: Yes
--
molecule: O=C1C(=O)c2cccc([N+](=O)[O-])c2-c2ccccc21
assigned-class: Yes
--
molecule: O=[N+]([O-])c1cccc2nc3ccccc3c(NCCCN3CCCCC3)c12
assigned-class: Yes
--
molecule: CCN(CC)CCC(=O)Nc1ccc2sc3ccccc3c(=O)c2n1
assigned-class: No
--
molecule: O=[N+]([O-])[O][Sn]([O][Sn]([O][N+](=O)[O-])([c]1ccccc1)[c]1ccccc1)([c]1ccccc1)[c]1ccccc1
assigned-class: No
--
molecule: COC(=O)C(Cl)(Cl)N=Nc1c(Cl)cc(Cl)c(C)c1Cl
assigned-class: Yes
--
molecule: CN(CCOc1ccc(Cl)cc1)CCOc1ccc(Cl)cc1
assigned-class: Yes
--
molecule: CSc1nc(-c2ccccc2)nc(=[N+]2CCOCC2)s1
assigned-class: Yes
--
molecule: NC(=S)N/N=C1\c2ccccc2CCC1CCC1(O)CCc2ccccc2C1=O (configuration not stated)
assigned-class: Yes
--
molecule: Cc1ccc(S(=O)(=O)NC(=O)C2C(=O)CC3(CCCCC3)CC2=O)cc1
assigned-class: Yes
--
molecule: O=C(NCCNCCNC(=O)c1cc(-c2ccccc2)nc2ccccc12)c1cc(-c2ccccc2)nc2ccccc12
assigned-class: No
--
molecule: OC1(c2ccccc2)C2CC=CC2C1(c1ccccc1)c1ccccc1 (configuration not stated)
assigned-class: No
--
molecule: COc1cc([C@@H]2c3cc4c(cc3[C@@H](NC(=O)NO)[C@H]3COC(=O)[C@H]23)OCO4)cc(OC)c1O
assigned-class: No
--
molecule: Cc1c2c(nc3ccccc13)C(=O)c1cccnc1C2=O
assigned-class: Yes
--
molecule: Cc1cccc2c(Cl)c3cccc(C)c3nc12
assigned-class: No
--
molecule: CCCCCCCCCCCCOCCOCCOCC(N)=O
assigned-class: Yes
--
molecule: CC(=O)NC(c1nc2cc(C)c(C)cc2[nH]1)c1nc2cc(C)c(C)cc2[nH]1
assigned-class: Yes
--
molecule: COc1ccc2nc(CCc3ccccc3)ccc2c1
assigned-class: Yes
--
molecule: Oc1ccc(C2(c3ccc(O)cc3)CCCC2)cc1
assigned-class: Yes
--
molecule: C/C(=N\OCC(O)CNCCSCc1ccccc1)c1ccccc1Cl (configuration not stated)
assigned-class: Yes
--
molecule: COc1ccc(C(C)c2cc3c(cc2OCC(C)=O)OCO3)cc1 (configuration not stated)
assigned-class: Yes
--
molecule: O=S(=O)(c1ccccc1)N1CN2CN(C1)CN(S(=O)(=O)c1ccccc1)C2
assigned-class: No

* * *

- assay-name: NCI Yeast Anticancer Drug Screen. Data for the mgt1 strain (AID 153)
- experimental-parameters: S. cerevisiae mgt1 mutant growth inhibition; at 1.2 µM; stronger effect = higher value
The panel holds about 79,000 compounds, 15% with a hit somewhere; the sample as a whole holds those more often.

molecule: COc1ccccc1/C=C\C(=O)C1COCN1 (stereo not drawn)
units-label: %
growth inhibition: -1

molecule: N#C/C(=C\NC(=S)Nc1ccc(S(N)(=O)=O)cc1)C(=O)c1ccc2ccccc2c1
units-label: %
growth inhibition: -2

molecule: CN(CCOc1ccc(Cl)cc1)CCOc1ccc(Cl)cc1
units-label: %
growth inhibition: 3

molecule: CCCCN(CCC#N)c1ccc(/C=C/c2ccnc3ccccc23)cc1
units-label: %
growth inhibition: -6

molecule: CN1C(=O)C(CC(=O)O)NC1=S (stereo not drawn)
units-label: %
growth inhibition: -3

molecule: CS(=O)(=O)O.[Ag]
units-label: %
growth inhibition: 65

molecule: Cc1cc(C)c(S(=O)(=O)c2ccc(Cl)cc2)c(C)c1
units-label: %
growth inhibition: -7

molecule: COC(=O)c1ccccc1N=NNc1cccc(SC)c1
units-label: %
growth inhibition: -16

molecule: O=C1Nc2ccc(Br)cc2C1=Nc1cccnc1
units-label: %
growth inhibition: -33

molecule: O/N=c1/ccn(O)c2ccccc12
units-label: %
growth inhibition: -1

molecule: O=C1c2ccccc2-c2ccc(N=Cc3ccccc3)cc21
units-label: %
growth inhibition: -4

molecule: CCCCOc1ccc2nc(C)cc(N=[N+]=[N-])c2c1
units-label: %
growth inhibition: 6

molecule: COc1cc(OC)c(CSCC(NC(=O)OCC2c3ccccc3-c3ccccc32)C(=O)O)c(OC)c1 (stereo not drawn)
units-label: %
growth inhibition: -2

molecule: CCO/C=C1\SC(=S)N(c2ccc(OCC)cc2)C1=O
units-label: %
growth inhibition: -13

molecule: COc1ccc(C(C)c2cc3c(cc2OCC(C)=O)OCO3)cc1 (stereo not drawn)
units-label: %
growth inhibition: -3

molecule: Nc1ccc(S(=O)(=O)Nc2nc3c(c(=O)[nH]2)CCCC3)cc1
units-label: %
growth inhibition: 2

molecule: CN(C)/C(=N/C(=S)Nc1ccccc1)SCc1ccccc1
units-label: %
growth inhibition: 1

molecule: CCOC(=O)Nc1ccc(C)c(NC(=O)OCC)c1
units-label: %
growth inhibition: 3

* * *

- assay-name: NCI Yeast Anticancer Drug Screen. Data for the rad14 strain (AID 159);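 also: 0% = growth of vehicle-treated control cultures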
- experimental-parameters: S. cerevisiae rad14 strain growth inhibition; at 3.7 µM; stronger effect = higher value
Compounds without any hit were thinned out: in the full panel of roughly 79,000, 15% have a hit.
# growth inhibition annotations

molecule: O=C(O)CNC(c1ccccc1)(c1ccccc1)c1ccccc1
growth inhibition / %: -6
//
molecule: c1ccc2c(c1)N=C1CCCC3CCCC123 (stereo unspecified)
growth inhibition / %: -7
//
molecule: CCCCCCCN(CCCCCCC)CC(=O)c1ccc2cc(Cl)c3ccccc3c2c1
growth inhibition / %: 50
//
molecule: COc1ccc2nc3cccc([N+](=O)[O-])c3c(NCCCCCC(=O)O)c2c1
growth inhibition / %: 99
//
molecule: O=C(Nc1cccs1)c1ccccc1
growth inhibition / %: -3
//
molecule: CC(C)NCCCNc1c2ccccc2nc2cccc([N+](=O)[O-])c12
growth inhibition / %: 98
//
molecule: C/C(=N\OCC(O)CNCCSCc1ccccc1)c1ccccc1Cl (stereo unspecified)
growth inhibition / %: 46
//
molecule: O=C(C(Cl)=C(N1CCCCC1)N1CCCCC1)C(Cl)Cl
growth inhibition / %: -1
//
molecule: O=S(=O)(NC1CCCC(c2ccccc2)C1)c1ccccc1 (stereo unspecified)
growth inhibition / %: 2
//
molecule: CC(C)(C)c1ccc2c(c1)C(=O)c1ccccc1C2=O
growth inhibition / %: -13
//
molecule: NC(CCCCCCCCCCCCC(N)C(=O)c1ccccc1)C(=O)c1ccccc1 (stereo unspecified)
growth inhibition / %: -12
//
molecule: COC1=CCC23C(=O)C=CC(=O)C2(C1)C(=O)c1ccccc1C3=O (stereo unspecified)
growth inhibition / %: 2
//
molecule: C[n+]1c(-c2ccc(/C=N/NC(=O)c3ccc(C(=O)N/N=C/c4ccc(-c5cn6ccccc6[n+]5C)cc4)cc3)cc2)cn2ccccc21
growth inhibition / %: 3
//
molecule: CC/C(=C(\c1ccccc1)c1ccc(OCC[N+](C)(C)C)cc1)c1ccccc1
growth inhibition / %: 88
//
molecule: C1=CCN([B-](c2ccccc2)[C+]2CCCCC2)C=C1
growth inhibition / %: -2
//
molecule: CC(C)S(=O)(=O)/C=C\S(=O)(=O)C(C)C
growth inhibition / %: 9
//
molecule: OC(c1ccccc1)(c1ccccc1)c1nccc2ccccc12
growth inhibition / %: 2
//
molecule: Nc1cc2c(cc1N)-c1ccccc1C2=O
growth inhibition / %: 3
//
molecule: CN(C)CC(CN(C)C)C(=O)/C=C/c1ccc(Cl)cc1Cl
growth inhibition / %: -2
//
molecule: Cc1cccc2c1C1c3c(C)cccc3C(CC(=O)O)CC1CC2 (stereo unspecified)
growth inhibition / %: 83
//
molecule: O=C(NCCNCCNC(=O)c1cc(-c2ccccc2)nc2ccccc12)c1cc(-c2ccccc2)nc2ccccc12
growth inhibition / %: -1
//
molecule: Nc1cc2ccccc2cc1N
growth inhibition / %: -17
//
molecule: CCCCCCCCCCCCCCCCCCNC(=S)/N=C/c1c(O)c2ccccc2[nH]c1=O
growth inhibition / %: 1
//
molecule: CCC(/C=C/c1ccccc1)=N\Nc1ccc(Cl)cc1
growth inhibition / %: 0
//
molecule: CCCCN(CCCC)c1ccc(N=Nc2ccc(S(=O)(=O)O)cc2)cc1
growth inhibition / %: 8
//
molecule: Cn1c(-c2ccc(/C=N\N3CCN(/N=C/c4ccc(-c5c[n+]6ccsc6n5C)cc4)CC3)cc2)c[n+]2ccsc12
growth inhibition / %: 10
//
molecule: CCOC(=S)SSSC(=S)OCC
growth inhibition / %: 5
//
molecule: NCCOc1ccc(/C(=C(/Cl)c2ccccc2)c2ccccc2)cc1
growth inhibition / %: -18
//
molecule: COC(=O)C(Cc1c[nH]c2ccccc12)N1CN(C)c2ccccc2C1=O (stereo unspecified)
growth inhibition / %: -9
//
molecule: NC(CS)C(=O)NCCNc1ccc(NCCNC(=O)C(N)CS)c2c1C(=O)c1c(O)ccc(O)c1C2=O (stereo unspecified)
growth inhibition / %: -47
//
molecule: CC(C)N(CCCNc1c2ccccc2nc2cccc([N+](=O)[O-])c12)C(C)C
growth inhibition / %: 98
//
molecule: CC1(C)OC(=O)C(=Cc2ccc([N+](=O)[O-])s2)C(=O)O1
growth inhibition / %: -5
//
molecule: O=P(C(=S)Nc1c(Cl)cccc1Cl)(c1ccccc1)c1ccccc1
growth inhibition / %: -14
//
molecule: CC(C)(CN1CCCCC1)C(=O)/C=C/c1c(Cl)cccc1Cl
growth inhibition / %: 54
//
molecule: CCc1c(Cl)c(C)c(Cl)c(O)c1Cl
growth inhibition / %: -12
//
molecule: CCOC(=O)/C(=C/c1cccc(Cl)c1)N(CC)CC
growth inhibition / %: 10
